tested on: c-Abl (mouse); assay: phosphorylation enrichment, bacterial display (enrichment ratio); higher = better substrate or ligand; peptides without Tyr show the background;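 further: 11-residue human phosphosite peptides and single-mutation variants displayed on the E. coli surface, counted by deep sequencing, each peptide's frequency after selection divided by its frequency in the unselected input library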;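 further: frequency after pTyr selection over input frequency; kinase dosed for 20-30% of maximal phosphorylation in three min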
Recorded phosphorylation enrichment by entry

The examples below pair each entry with its known result.
* TCRPPYFHRNC [HGD_Y333_F329C_YF] | 0.878
* TESNNYIFKTL [FAM83B_Y637_YF] | 0.762
* LMLVLYGRIFL [HTR1A_Y215_R220L] | 0.996

I have this sequence here, ASGKFYAMKIL [AKT3_Y174_YF] , and I need its recorded phosphorylation enrichment.
0.675

Would you mind doing MSRDVYSIDFF [NTRK2_Y702_T704I_YF] as well?
0.652

Also need CTTVHYNFMCN [TP53_Y234_I232V_YF] , thanks.
0.687

Now this one: TRSFDYTEGGD [FGF7_Y58_M59T_YF]
0.659

What do we get for MFRVQYNSSVD [LRFN1_Y458_Q455R_YF] ?
0.552

Same question for TVHCDYLNISH [TAF1L_Y1385_P1389S] please.
0.663

// next record GSERDYTYEEL [EIF2S2_Y174]
0.977

Next record, please: FHLGKYLQEVL [KLB_Y910_Y906H_YF]
1.01

What do we get for GRQGIYTENER [GPR143_Y231] ?
0.581

Do the same for YGMQLYQKYMH [GRB14_Y347_N349K] please
0.648

What do we get for SDGGCYEQLFV [MC4R_Y41] ?
0.871

Now the sequence GDGRFYMKEAI [PGM1_Y66]
0.709

Could you do the same for CEAIEYLESKQ [BTK_Y511_M509I] , please?
0.816

What do we get for GNHVSYFQSDG [CACNA1C_Y1757_YF] ?
0.517

How about CTTIHYNYICN [TP53_Y234_M237I] ?
0.519

Also MGCVNYGAYIN [GLB1_Y485_R482C] , if possible.
1.39

###

# phosphorylation enrichment listing for each entry below
biological target: Hck (UniProt P08631); experiment: phosphorylation enrichment, bacterial display (enrichment ratio); higher = better substrate or ligand; peptides without Tyr show the background
Sequence (P08631 whole entry, looked up): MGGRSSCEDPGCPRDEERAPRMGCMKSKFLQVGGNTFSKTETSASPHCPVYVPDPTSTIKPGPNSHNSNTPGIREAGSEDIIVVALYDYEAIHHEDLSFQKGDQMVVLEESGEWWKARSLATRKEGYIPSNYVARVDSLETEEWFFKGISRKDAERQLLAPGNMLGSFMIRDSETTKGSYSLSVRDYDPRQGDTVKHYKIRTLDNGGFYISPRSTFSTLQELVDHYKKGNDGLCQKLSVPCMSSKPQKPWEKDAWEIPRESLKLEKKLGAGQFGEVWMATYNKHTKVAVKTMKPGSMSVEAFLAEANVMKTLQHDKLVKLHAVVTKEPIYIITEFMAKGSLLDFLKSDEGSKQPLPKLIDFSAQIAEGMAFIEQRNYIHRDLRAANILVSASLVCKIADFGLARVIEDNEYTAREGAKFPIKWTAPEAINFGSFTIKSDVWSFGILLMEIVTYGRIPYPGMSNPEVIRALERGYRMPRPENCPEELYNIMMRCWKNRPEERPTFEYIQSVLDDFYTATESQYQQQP
Just the number, please, no unit after it.

- DGQVNYEGFVQ [CALM1_Y139_E141G]: 0.553

Reported phosphorylation enrichment for CTTIHYNFKCN [TP53_Y234_M237K_YF] : what is it?
0.476

What would you report for FDKEFYSVHNK [MET_Y1235_YF] ?
0.803

Moving on to the next sequence: QSPQLYKQLCI [DARS1_Y253_M256L]
0.706

###

# phosphorylation enrichment per record follows
system: AncSZ; experiment: phosphorylation enrichment, bacterial display (enrichment ratio); higher = better substrate or ligand; peptides without Tyr show the background
Reply briefly: the number, and no unit.

- DYYDLYGGKKF [PTPN11_Y66_E69K]: 1.31
- QKDTFYGLRSL [IGSF10_Y126]: 0.73
- WSRAMYPDLGP [STARD8_Y330]: 0.745
- RKPDIYERLAS [MCM4_Y459]: 0.846
- LARDMYDKEFF [MET_Y1230_YF]: 0.685

Look up phosphorylation enrichment for this sequence: IRTIDYRFTVS [IDS_Y497_W502S_YF]
0.907

Next record, please: NDLMEYAKQHG [ASS1_Y163]
0.852

// next record FQEKGYNKEPR [CHRND_Y38_L42P]
0.895

Ok, now AVLSLYASDRT [ACTA1_Y145_G148D]
0.967

Request: DLQDEYDFKCK [STAT1_Y170]
1.28

The values you see were collected from the supplement of paper PMC10065799.
